System: MOLT-4 leukemia
Experiment: NCI-60 one-dose screen, 48 h
Settings: 10 µM unless noted
About 83,000 compounds went through this panel and 20% of them were active in at least one assay; those are over-represented in the sample as a whole. The source made the active and inactive calls. How the source made its calls: active means growth percent below 10; inactive means the rest.
// classify into 1.0 for active, 0.0 for inactive

Record excerpt, results attached:
Cc1cc(C)cc(S(=O)(=O)n2ccc(-c3ccc4c(c3)CCC(C)(C)O4)n2)c1 :: 0.0
C(#Cc1ccccc1C#Cc1ccccn1)c1ccc(OCCCCCCOc2ccc(C#Cc3ccccc3C#Cc3ccccn3)cc2)cc1 :: 0.0

Which result was noted for this molecule in the test: `c1ccc2c(-c3nc4ccccc4[nH]3)cccc2c1`
0.0

Which result was noted for this molecule in the test: C=C1CCC2C3(C)COC(c4ccccc4)OC3CCC2(C)C1C/C=C1/C(=O)OCC1OC(C)=O (configuration not stated)
0.0

====

For each of the compounds below, state its growth.
Test system: RPMI-8226 leukemia
Test: NCI-60 one-dose screen, 48 h (100 = growth as untreated, 0 = no growth, -100 = all killed)
Settings: 10 µM unless noted
The panel holds about 83,000 compounds, 20% with a hit somewhere; the sample as a whole holds those more often.
Give bare numbers, in %.

Some compounds with recorded growth:
NS(=O)(=O)N(c1cc(C(F)(F)F)cc(C(F)(F)F)c1)C1CCN(Cc2ccc(C(F)(F)F)cc2)CC1 :: 31.7
CN(C)c1ccc(-c2nc3ncc(Br)cc3o2)cc1 :: 74

Provide the reported growth of each entry below, same order.
1. COc1ccc2c(c1)sc1nc(-c3ccc(Br)cc3)cn12
2. CC(=O)N1N=C(c2ccc(Nc3ccnc4cc(Cl)ccc34)cc2)CC1c1ccc(Cl)cc1 (centres undefined)

112
22.3

====

System: NCI-H322M lung
Assay: NCI-60 one-dose screen, 48 h (100 = growth as untreated, 0 = no growth, -100 = all killed)
Conditions: 10 µM unless noted
This is part of a sample that, as a whole, favours compounds with a hit. Of some 83,000 tested, about 20% had one in any assay.
property_name: growth (%)
Answers are plain numbers, in %.

Some molecules with recorded growth:
COc1cc(/C=C2\CN(S(=O)(=O)c3ccc(C)cc3)C/C(=C\c3cc(CN4CCOCC4)c(O)c(OC)c3)C2=O)cc(CN2CCOCC2)c1O :: -15.6
COc1cc(/C=C/C(=O)C(C(=O)/C=C/c2ccc(OC(=O)CCNC34CC5CC(CC(C5)C3)C4)c(OC)c2)C(=O)CCNC23CC4CC(CC(C4)C2)C3)ccc1OC(=O)CCNC12CC3CC(CC(C3)C1)C2 (centres undefined) :: 51.6
COc1ccc2nc(-c3ccc(Cl)cc3)cc(-c3nnc(SCC(=O)Nc4ccc(C(C)=O)cc4)n3-c3ccccc3)c2c1 :: 91.5
Cc1ccccc1NC(=O)N/C(N)=N/c1nc2ccccc2s1 :: 39.2
Cc1ccc2c(c1)C(=O)/C(=C\Nc1ccc(C(N)=O)cc1)C(O)O2 (centres undefined) :: 95.8
Clc1ccc2nc(CI)c(CI)nc2c1 :: 83.7

Provide the reported growth of each entry below, same order.
1. O=C1OC2(c3ccccc31)c1ccccc1-c1ccccc12
2. O=C(/C=C/c1ccc(C(F)(F)F)cc1)c1ccc(Nc2nc(NCCO)nc(NCCO)n2)cc1
3. C[C@H]1C(=O)N2c3ccccc3[C@@]3(O)C[C@@H](n4cnc5ccccc5c4=O)C(=O)N1[C@@H]23

1: 103; 2: 74.8; 3: 109

====

System: NCI/ADR-RES ovarian
Assay: NCI-60 one-dose screen, 48 h
Settings: 10 µM unless noted
Method: Growth inhibition of the NCI/ADR-RES human […] tumor cell line is measured as a screen for anti-cancer activity. Cells are grown in 96 well plates and exposed to the test compound for 48 hours. Compounds are tested at a single concentration, which is 10^-5 M for most compounds. The reported endpoint is percent growth (GI% or GIPRCNT), where numbers from 0 - 100% represent growth inhibition, and numbers from -100% - 0 represent cell death. For example, a value of 40 represents 60% growth inhibition. […]
Compounds without any hit were thinned out: in the full panel of roughly 83,000, 20% have a hit. Active and inactive are the calls of the source. Rule for the calls: active = growth percent below 10; inactive = the rest.
// classify into active, inactive

CC(=O)OCC(=O)[C@@]1(O)CC[C@H]2[C@@H]3CCC4=CC(=O)CC[C@]4(C)[C@@]3(F)[C@@H](O)C[C@@]21C :: inactive
CCOC(CNCc1cc(C)c2[nH]c3ccccc3c2c1C)OCC :: inactive
NC(=O)NS(=O)(=O)c1ccc(N2N=C(C(F)(F)F)CC2c2cc(C(F)(F)F)cc(C(F)(F)F)c2)cc1 (stereo not drawn) :: inactive
COCCOCCOCCOCCOc1ccc2c(c1)C(=O)c1nc3ncccc3c(=O)n1-2 :: active
O=C1c2cc3c(cc2-c2c1c1ccc(Cl)cc1c(=O)n2CCCNCCO)OCO3 :: active

Which result was noted for this compound in the test: `CCCCCCCCCCCCCCCCNC(=O)Nc1ccc2ccccc2c1`
inactive

Which result was noted for this compound in the test: `CCN(CC)CCOCC[C@H]1CC[C@H]2[C@@H]3[C@H](C)Cc4cc(OS(N)(=O)=O)ccc4[C@H]3CC[C@]12C`
active

Which result was noted for this compound in the test: `COc1cccc(/C=N/Nc2nc3ccccc3s2)c1OC`
inactive

====

Tested on: HCT-116 colon
Assay: NCI-60 one-dose screen, 48 h (100 = growth as untreated, 0 = no growth, -100 = all killed)
Settings: 10 µM unless noted
Compounds without any hit were thinned out: in the full panel of roughly 83,000, 20% have a hit.
For each of the molecules below, state its growth.
Answers are plain numbers, in %.

Some molecules with recorded growth:
Cn1cc(NC(=O)Nc2cc(C(=O)O)n(C)c2)cc1C(=O)O :: 102
O=C(NN1C(=O)c2cc(C(=O)O)c(C(=O)O)cc2C1=O)c1ccncc1 :: 106
COc1cc(C(=O)/C=C/c2cccc(Nc3ccnc4cc(Cl)ccc34)c2)cc(OC)c1OC :: -62.5

Provide the reported growth of each entry below, same order.
1. COc1cc(-c2nc3nc4sc(C)c(C)c4c(=O)n3[nH]2)cc(OC)c1OC
2. O=C1CNc2cc(Cl)ccc2N1
3. O=C(COc1cccc(/C=C2\Oc3ccc4ccccc4c3C2=O)c1)c1ccc(Cl)cc1
4. CSc1nc(-c2ccc(O)cc2O)c2c(=O)[nH]c(Nc3ccc(S(=O)(=O)Nc4nc(C)cc(C)n4)cc3)nc2n1
5. CNNc1ncnc2c1cnn2-c1ccc(S(N)(=O)=O)cc1

[75.9, 104, 41.7, 101, 100]

Provide the reported growth of each entry below, same order.
1. O=c1[nH]cc(Nc2cc(Cl)c3nonc3c2[N+](=O)[O-])c(=O)[nH]1
2. COc1cc(NC(=O)NCc2ccco2)ccc1-c1ccc(NC(=O)NCc2ccco2)cc1OC
3. COc1ccc(NS(=O)(=O)N2CCCCC2)cc1
4. N[C@H](CS)C(=O)O
5. Cc1nn(-c2nc3ccccc3s2)c(C)c1Oc1ccccc1O

1: 99.1; 2: 35.2; 3: 103; 4: 112; 5: 27.4

Provide the reported growth of each entry below, same order.
1. O=[N+]([O-])c1ccc2[nH]cc(-c3c4ccccc4cc4[nH]c5ccc([N+](=O)[O-])cc5c34)c2c1
2. c1ccc(-c2n(Cc3ccc4ccccc4c3)cc[n+]2Cc2ccc3ccccc3c2)cc1
3. O=C(N/N=C/c1cccc([N+](=O)[O-])c1)c1ccc(Br)o1
4. COc1ccc(C2CC(c3ccc(Nc4ccnc5cc(Cl)ccc45)cc3)=NN2C(C)=O)cc1 (configuration not stated)

9.37
-91.6
100
61.3

====

Tested on: LOX IMVI melanoma
Assay: NCI-60 one-dose screen, 48 h
Settings: 10 µM unless noted
This is part of a sample that, as a whole, favours compounds with a hit. Of some 83,000 tested, about 20% had one in any assay. Calls of active or inactive are those of the source. How the source made its calls: active means growth percent below 10; inactive means the rest.
// classify into active, inactive

Record excerpt, results attached:
Nc1c(C(=O)Nc2cccc(Cl)c2)sc2nc3c(cc12)C(O)CCC3 (stereo unspecified) :: inactive
COc1ccc2cc(C3=CC(=O)CCC3)ccc2c1 :: inactive

Which result was noted for this compound in the test: `COc1cnc2c(c1)C(=O)c1c-2n(CCCNC(C)C)c(=O)c2cc(F)ccc12`
active

Which result was noted for this compound in the test: `Cc1cc(Br)c(C)cc1Br`
inactive

Which result was noted for this compound in the test: `O=C1C(=O)c2c(nc3ccc(Cl)cn23)-c2ccccc21`
active

Which result was noted for this compound in the test: `O=C(Nc1nc(-c2ccc(Cl)cc2)cs1)c1cc(-c2ccc(Br)cc2)nc2ccc(Cl)cc12`
inactive

Which result was noted for this compound in the test: CC(C)=CCNc1ncnc2c1ncn2C1OC(COP(=O)(O)O)C(O)C1O (stereo unspecified)
active

====

For each of the compounds below, state its growth.
Tested on: SK-OV-3 ovarian
Test: NCI-60 one-dose screen, 48 h (100 = growth as untreated, 0 = no growth, -100 = all killed)
Settings: 10 µM unless noted
The panel holds about 83,000 compounds, 20% with a hit somewhere; the sample as a whole holds those more often.
Numbers only, in %.

CC(=O)c1ccccc1NC(=O)C(C)(c1ccccc1)c1ccccc1 :: 103
c1ccc(Nc2ccc(Nc3nc(-c4ccccc4)nc4ccccc34)cc2)cc1 :: 107

Consider the record given below.
Name the reported growth value associated with the compound `Cc1cc(=O)oc2cc(OCCn3c(C)nn(-c4ccc(Cl)cc4)c3=O)ccc12`
41.1

FYI, the data here is from PubChem BioAssay (NCI).
